Data origin: paper PMC3504387

Biological target: T1, GST–PPARγ fusion protein (purified ligand binding domain of PPARγ)
T1 chain: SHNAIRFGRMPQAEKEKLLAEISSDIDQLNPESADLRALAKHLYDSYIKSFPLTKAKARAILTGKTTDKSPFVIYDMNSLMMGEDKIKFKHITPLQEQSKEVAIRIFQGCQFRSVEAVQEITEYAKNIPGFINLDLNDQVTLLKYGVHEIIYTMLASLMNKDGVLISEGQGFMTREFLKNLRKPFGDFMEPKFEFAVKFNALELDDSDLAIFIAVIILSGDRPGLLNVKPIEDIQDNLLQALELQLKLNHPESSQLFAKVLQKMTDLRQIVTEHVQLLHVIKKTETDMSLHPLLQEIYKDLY
Test: FRET or BRET; homogeneous TR-FRET as a1, 12-concentration dose–response of aleglitazar; the EC50 is of the compound; delta ratio in % of the reference compound at 10 μM (RO4899100 for PPARα, edaglitazone for PPARγ)
Conditions: both partners purified
Where no end group is shown, it is not given here. The star is where a group is joined. Biotin = O=C1N[C@H]2[C@H](CS[C@H]2CCCCC(=O)*)N1; Ahx = NCCCCCC(=O)O
Endpoint: EC50 of aleglitazar for recruitment (nM)

Some binders with known EC50 of aleglitazar for recruitment results, for comparison:
For this binder ( {Biotin-Ahx}-SRLHDSKGQTKLLQLLTTKSD (transcriptional intermediary factor 2 (TIF2), motif 1, residues 630-650; source: synthetic peptide (Jerini or Biosynthan, Berlin)) [TIF2_M1 cofactor peptide (transcriptional intermediary factor 2, motif 1)] ), measured EC50 of aleglitazar for recruitment is 43.2

binder {Biotin-Ahx}-DSKYSQTSHKLVQLLTTTAEQQLRH (source: synthetic peptide (Jerini or Biosynthan, Berlin)) [SRC1_M1 cofactor peptide (steroid receptor co-activator 1, motif 1)] , EC50 of aleglitazar for recruitment observed: 11

In plain terms, {Biotin-Ahx}-CPSSHSSLTERHKILHRLLQEGSPS (source: synthetic peptide (Jerini or Biosynthan, Berlin)) [SRC1_M2 cofactor peptide (steroid receptor co-activator 1, motif 2)] has a documented EC50 of aleglitazar for recruitment of 3.2

Entry under test: {Biotin-Ahx}-SNMHGSLLQEKHRILHKLLQNGNSP (source: synthetic peptide (Jerini or Biosynthan, Berlin)) [RAC3_M2 cofactor peptide (receptor-associated co-activator 3, motif 2)] . Its EC50 of aleglitazar for recruitment was 7.4

A = {Biotin-Ahx}-PKKENNALLRYLLDRDDPSDV (source: synthetic peptide (Jerini or Biosynthan, Berlin)) [RAC3_M3 cofactor peptide (receptor-associated co-activator 3, motif 3)]
B = {Biotin-Ahx}-TSGPQTPQAQQKSLLQQLLTE (source: synthetic peptide (Jerini or Biosynthan, Berlin)) [SRC1_M4 cofactor peptide (steroid receptor co-activator 1, motif 4)]
Param metric = EC50 of aleglitazar for recruitment; output whichever of A , B has the minimum value. Pick one and reply with its label.
B
(B: 3.4 nM, A: 9.5 nM)
